- TARGET ENTITY: UniProtKB P49286
- Sequence (whole entry): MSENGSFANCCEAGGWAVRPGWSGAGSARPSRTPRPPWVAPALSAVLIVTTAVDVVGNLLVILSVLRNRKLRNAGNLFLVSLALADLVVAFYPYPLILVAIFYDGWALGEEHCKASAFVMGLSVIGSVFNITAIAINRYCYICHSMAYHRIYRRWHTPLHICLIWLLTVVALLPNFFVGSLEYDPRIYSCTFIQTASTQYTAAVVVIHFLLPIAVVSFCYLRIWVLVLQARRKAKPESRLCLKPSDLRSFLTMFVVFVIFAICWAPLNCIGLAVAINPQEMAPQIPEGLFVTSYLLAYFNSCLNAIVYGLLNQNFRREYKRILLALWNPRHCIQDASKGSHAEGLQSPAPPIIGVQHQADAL
- ASSAY NAME: Intrinsic activity at human cloned MT2 receptor expressed in […] NIH3T3 cells assessed as increase of [35S]GTPgammaS binding relative to melatonin
- Assay type: functional, cell-based
Classification field: enter MET for Ratio values not below 0.7, NOT MET for values below it.

COc1cccc(O[C@H](C)CNC(=O)C2CC2)c1; MET

Task: Decide: is the reported value of Ratio for COc1cccc(SC(C)CNC(=O)C2CC2)c1 (stereo not given) equal to or greater than 0.7?
Output: NOT MET

Task: Given the entry CC(=O)NCCSc1ccccc1 , answer whether its Ratio meets or surpasses 0.7.
Output: NOT MET

Task: Identify whether the reported Ratio of the following compound is 0.7 or greater: CCCC(=O)NC[C@@H](C)Sc1cccc(OC)c1
Output: NOT MET

====

- TARGET ENTITY: Melatonin receptor type 1B (Homo sapiens, UniProt P49286)
- Sequence (P49286 whole entry): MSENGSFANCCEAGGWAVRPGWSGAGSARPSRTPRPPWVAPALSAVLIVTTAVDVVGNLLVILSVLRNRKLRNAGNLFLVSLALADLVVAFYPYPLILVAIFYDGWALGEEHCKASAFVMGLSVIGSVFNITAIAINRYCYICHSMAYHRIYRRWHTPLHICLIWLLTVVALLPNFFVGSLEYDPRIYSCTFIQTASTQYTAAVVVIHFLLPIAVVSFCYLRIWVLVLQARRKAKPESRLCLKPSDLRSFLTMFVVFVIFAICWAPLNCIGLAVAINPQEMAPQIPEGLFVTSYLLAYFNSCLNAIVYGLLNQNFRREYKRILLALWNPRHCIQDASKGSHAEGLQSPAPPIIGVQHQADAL
EXPERIMENTAL ENDPOINT: pKi
Answers are plain numbers, as −log10 of the molar value.

Examples with their reported pKi follow.
COc1cccc(O[C@H](C)CNC(C)=O)c1; 6.96
COc1cccc(S[C@H](C)CNC(=O)C2CC2)c1; 7.31
COc1cccc(SC[C@@H](C)NC(C)=O)c1; 4.91
COc1ccccc1OC(C)CNC(C)=O (centres undefined); 5.29
COc1cccc(O[C@@H](C)CNC(C)=O)c1; 8.33
CCCC(=O)NC[C@@H](C)Oc1cccc(OC)c1; 7.17

I have 3 molecules here; please give me pKi for each one.
1. CCCC(=O)NC[C@@H](C)Sc1cccc(OC)c1
2. COc1cccc(SC(C)CNC(=O)C2CC2)c1 (centres undefined)
3. COc1cccc(SC[C@H](C)NC(C)=O)c1

Output:
1: 7.58; 2: 8.01; 3: 6.58

Where these numbers come from: ChEMBL document CHEMBL1221295
